Experiment: Half life in SCID mouse at 1 mg/kg, iv
Assay type: ADME, organism-based
Parameters: dose 1 mg/kg, route intravenous
Conditions: in vivo

>  <smiles.text>
COc1cc(C2CCN(CC(N)=O)CC2)ccc1Nc1ncc2ccc(-c3ccccc3OC)n2n1

>  <half-life (h)>
6

$$$$

====

Test: Plasma concentration in human SUP-M2 cells xenografted SCID mouse at 30 mg/kg, po administered as single dose measured 12 hrs post dose
Type: ADME, organism-based
Parameters: dose 30 mg/kg, route oral

>  <smiles.text>
COc1cc(C2CCN(CC(N)=O)CC2)ccc1Nc1ncc2ccc(-c3ccccc3OC)n2n1

>  <concentration at 12 h [µM]>
6

$$$$

====

Target: ALK tyrosine kinase receptor (Homo sapiens, UniProt Q9UM73)
Sequence (Q9UM73 whole entry, the tested form may be a part): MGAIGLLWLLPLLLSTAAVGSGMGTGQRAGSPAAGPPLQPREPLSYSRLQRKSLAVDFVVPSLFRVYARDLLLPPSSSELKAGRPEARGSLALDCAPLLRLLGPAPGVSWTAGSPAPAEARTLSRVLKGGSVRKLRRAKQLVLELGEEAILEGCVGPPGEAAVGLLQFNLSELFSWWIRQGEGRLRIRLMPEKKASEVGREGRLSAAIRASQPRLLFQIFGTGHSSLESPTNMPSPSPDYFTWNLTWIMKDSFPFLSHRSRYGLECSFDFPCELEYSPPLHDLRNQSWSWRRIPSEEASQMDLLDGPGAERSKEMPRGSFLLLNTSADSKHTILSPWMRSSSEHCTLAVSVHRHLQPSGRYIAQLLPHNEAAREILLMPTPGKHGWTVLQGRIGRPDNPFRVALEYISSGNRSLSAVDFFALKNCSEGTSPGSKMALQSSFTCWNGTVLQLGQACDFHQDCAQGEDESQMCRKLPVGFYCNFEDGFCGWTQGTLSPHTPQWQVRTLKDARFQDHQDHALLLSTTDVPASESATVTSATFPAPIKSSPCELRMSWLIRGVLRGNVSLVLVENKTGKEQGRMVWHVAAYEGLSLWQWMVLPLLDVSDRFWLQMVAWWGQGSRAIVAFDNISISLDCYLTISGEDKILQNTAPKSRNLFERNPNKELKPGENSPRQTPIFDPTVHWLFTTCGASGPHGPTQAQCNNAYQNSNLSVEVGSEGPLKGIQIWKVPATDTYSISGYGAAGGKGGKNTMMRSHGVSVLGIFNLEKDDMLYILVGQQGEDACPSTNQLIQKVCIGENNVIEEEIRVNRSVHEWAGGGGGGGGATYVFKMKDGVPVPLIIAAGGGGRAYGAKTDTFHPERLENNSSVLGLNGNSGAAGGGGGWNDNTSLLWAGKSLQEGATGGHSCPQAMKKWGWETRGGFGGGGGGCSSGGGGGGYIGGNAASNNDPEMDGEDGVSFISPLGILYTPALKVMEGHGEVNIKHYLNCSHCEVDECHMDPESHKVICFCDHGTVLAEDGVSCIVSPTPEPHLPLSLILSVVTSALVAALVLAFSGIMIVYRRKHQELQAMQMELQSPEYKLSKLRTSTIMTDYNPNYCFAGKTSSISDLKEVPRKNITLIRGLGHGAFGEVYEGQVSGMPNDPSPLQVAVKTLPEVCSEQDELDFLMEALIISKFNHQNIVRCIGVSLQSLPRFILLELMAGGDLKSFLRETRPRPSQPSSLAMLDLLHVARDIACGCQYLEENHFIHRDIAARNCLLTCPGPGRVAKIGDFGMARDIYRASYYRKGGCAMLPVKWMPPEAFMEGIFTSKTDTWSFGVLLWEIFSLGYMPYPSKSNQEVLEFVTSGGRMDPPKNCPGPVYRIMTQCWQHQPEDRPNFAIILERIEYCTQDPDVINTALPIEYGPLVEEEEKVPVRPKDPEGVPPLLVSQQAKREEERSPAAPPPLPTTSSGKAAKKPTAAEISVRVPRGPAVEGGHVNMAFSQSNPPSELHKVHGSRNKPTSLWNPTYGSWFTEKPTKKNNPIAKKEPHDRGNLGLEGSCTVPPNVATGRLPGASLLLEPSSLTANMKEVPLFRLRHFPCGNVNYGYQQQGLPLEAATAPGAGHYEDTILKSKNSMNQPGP
Assay: Inhibition of GST-tagged human ALK cytoplasmic domain (1058-1620) expressed in Sf21 insect cells using GST-tagged human recombinant PLC-gamma/substrate by ELISA
pIC50: −log10 of the molar value.
molecules and their reported pIC50
recorded.metric: pIC50

>  <smiles.text>
COc1cc(C2CCN(CC(N)=O)CC2)ccc1Nc1ncc2c(C)cc(-c3ccccc3N(C)S(C)(=O)=O)n2n1

>  <recorded.metric>
pIC50

>  <recorded.measurement>
8.22

$$$$
>  <smiles.text>
COc1ccc(N2CCN(C)CC2)cc1Nc1ncc2ccc(-c3ccccc3OC)n2n1

>  <recorded.metric>
pIC50

>  <recorded.measurement>
6.73

$$$$
>  <smiles.text>
COc1cc(C2CCN(C)CC2)ccc1Nc1ncc2ccc(-c3ccccc3OC)n2n1

>  <recorded.metric>
pIC50

>  <recorded.measurement>
8.22

$$$$
>  <smiles.text>
COc1cc(C2CCNCC2)ccc1Nc1ncc2ccc(-c3ccccc3N(C)S(C)(=O)=O)n2n1

>  <recorded.metric>
pIC50

>  <recorded.measurement>
8.00

$$$$
>  <smiles.text>
COc1cc(C2CCN(CC(N)=O)CC2)ccc1Nc1ncc2ccc(-c3ccccc3N(C)S(C)(=O)=O)n2n1

>  <recorded.metric>
pIC50

>  <recorded.measurement>
7.82

$$$$
>  <smiles.text>
COc1cc(C2CCN(CC(N)=O)CC2)ccc1Nc1ncc2c(O)cc(-c3ccccc3N(C)S(C)(=O)=O)n2n1

>  <recorded.metric>
pIC50

>  <recorded.measurement>
7.96

$$$$
>  <smiles.text>
COc1cc(C2CCN(CC(N)=O)CC2)ccc1Nc1ncc2ccc(-c3ccccc3OC)n2n1

>  <recorded.metric>
pIC50

>  <recorded.measurement>
8.22

$$$$

====

Assay: Cmax in Sprague-Dawley rat at 5 mg/kg, po
Type: ADME, organism-based
Parameters: dose 5 mg/kg, route oral
Settings: in vivo
recorded.metric: Cmax (ng/mL)

>  <smiles.text>
COc1cc(C2CCN(CC(N)=O)CC2)ccc1Nc1ncc2ccc(-c3ccccc3OC)n2n1

>  <recorded.measurement>
392

$$$$

====

Experiment: Ratio of tumor concentration at 12 hrs to plasma concentration at 12 hrs in human SUP-M2 cells xenografted SCID mouse at 30 mg/kg, po administered as single dose
Assay type: ADME, organism-based
Design: dose 30 mg/kg, route oral

>  <smiles.text>
COc1cc(C2CCN(CC(N)=O)CC2)ccc1Nc1ncc2ccc(-c3ccccc3OC)n2n1

>  <Kp at 12 h>
2

$$$$

====

pIC50: −log10 of the molar value.
For reference, pIC50 measured on Insulin receptor (Homo sapiens, UniProt P06213):
recorded.metric: pIC50

>  <compound>
COc1cc(C2CCN(C)CC2)ccc1Nc1ncc2ccc(-c3ccccc3OC)n2n1

>  <recorded.metric>
pIC50

>  <prefix.operator>
=

>  <recorded.measurement>
6.65

$$$$
>  <compound>
COc1cc(C2CCN(CC(N)=O)CC2)ccc1Nc1ncc2ccc(-c3ncccc3OC)n2n1

>  <recorded.metric>
pIC50

>  <prefix.operator>
<

>  <recorded.measurement>
5.00

$$$$
>  <compound>
COc1cc(C2CCN(CC(N)=O)CC2)ccc1Nc1ncc2ccc(-c3ccccc3C#N)n2n1

>  <recorded.metric>
pIC50

>  <prefix.operator>
=

>  <recorded.measurement>
6.13

$$$$
>  <compound>
COc1cc(C2CCN(C(=O)C(C)(C)N)CC2)ccc1Nc1ncc2ccc(-c3ccccc3OC)n2n1

>  <recorded.metric>
pIC50

>  <prefix.operator>
=

>  <recorded.measurement>
6.24

$$$$
>  <compound>
COc1cc(C2CCN(CC(N)=O)CC2)ccc1Nc1ncc2ccc(-c3ccccc3OC)n2n1

>  <recorded.metric>
pIC50

>  <prefix.operator>
=

>  <recorded.measurement>
6.65

$$$$
>  <compound>
COc1cc(C2CCN(CC(O)CF)CC2)ccc1Nc1ncc2ccc(-c3ccccc3OC)n2n1 (racemic)

>  <recorded.metric>
pIC50

>  <prefix.operator>
=

>  <recorded.measurement>
6.83

$$$$
>  <compound>
COc1cc(C2CCN(CC(N)=O)CC2)ccc1Nc1ncc2ccc(-c3ccncc3OC)n2n1

>  <recorded.metric>
pIC50

>  <prefix.operator>
=

>  <recorded.measurement>
6.39

$$$$
>  <compound>
COc1cc(C2CCN(CC(N)=O)CC2)ccc1Nc1ncc2ccc(-c3ccccc3N(C)S(C)(=O)=O)n2n1

>  <recorded.metric>
pIC50

>  <prefix.operator>
=

>  <recorded.measurement>
6.26

$$$$

====

molecules and their reported clearance
Assay: Clearance in Sprague-Dawley rat at 1 mg/kg, iv
Format: ADME, organism-based
Parameters: dose 1 mg/kg, route intravenous
Details: in vivo

>  <molecule>
COc1cc(C2CCN(C(=O)C(C)(C)N)CC2)ccc1Nc1ncc2ccc(-c3ccccc3OC)n2n1

>  <prefix.operator>
=

>  <clearance, mL/min/kg>
25

$$$$
>  <molecule>
COc1cc(C2CCN(C[C@H](O)CO)CC2)ccc1Nc1ncc2ccc(-c3ccccc3OC)n2n1

>  <prefix.operator>
=

>  <clearance, mL/min/kg>
39

$$$$
>  <molecule>
COc1cc(C2CCN(CC(N)=O)CC2)ccc1Nc1ncc2ccc(-c3ccccc3OC)n2n1

>  <prefix.operator>
=

>  <clearance, mL/min/kg>
12

$$$$
>  <molecule>
COc1cc(C2CCN(CC(O)CF)CC2)ccc1Nc1ncc2ccc(-c3ccccc3OC)n2n1 (racemic)

>  <prefix.operator>
=

>  <clearance, mL/min/kg>
62

$$$$
>  <molecule>
COc1cc(C2CCN(C(=O)C3CCN3)CC2)ccc1Nc1ncc2ccc(-c3ccccc3OC)n2n1 (racemic)

>  <prefix.operator>
=

>  <clearance, mL/min/kg>
32

$$$$
>  <molecule>
COc1cc(C2CCN(CC(N)=O)CC2)ccc1Nc1ncc2c(C)cc(-c3ccccc3N(C)S(C)(=O)=O)n2n1

>  <prefix.operator>
≤

>  <clearance, mL/min/kg>
4

$$$$
>  <molecule>
COc1cc(C2CCN(CC(N)=O)CC2)ccc1Nc1ncc2c(Cl)cc(-c3ccccc3N(C)S(C)(=O)=O)n2n1

>  <prefix.operator>
≤

>  <clearance, mL/min/kg>
4

$$$$
>  <molecule>
COc1cc(C2CCN(C)CC2)ccc1Nc1ncc2ccc(-c3ccccc3OC)n2n1

>  <prefix.operator>
=

>  <clearance, mL/min/kg>
29

$$$$

====

Assay: Oral bioavailability in SCID mouse at 10 mg/kg
Type: ADME, organism-based
Details: in vivo

>  <smiles.text>
COc1cc(C2CCN(CC(N)=O)CC2)ccc1Nc1ncc2ccc(-c3ccccc3OC)n2n1

>  <bioavailability / %>
56

$$$$

====

Molecular target: NPM/ALK (Nucleophosmin/ALK tyrosine kinase receptor) (Homo sapiens, UniProt Q9UM73)
Sequence (P06748 whole entry, one chain of several, further chain): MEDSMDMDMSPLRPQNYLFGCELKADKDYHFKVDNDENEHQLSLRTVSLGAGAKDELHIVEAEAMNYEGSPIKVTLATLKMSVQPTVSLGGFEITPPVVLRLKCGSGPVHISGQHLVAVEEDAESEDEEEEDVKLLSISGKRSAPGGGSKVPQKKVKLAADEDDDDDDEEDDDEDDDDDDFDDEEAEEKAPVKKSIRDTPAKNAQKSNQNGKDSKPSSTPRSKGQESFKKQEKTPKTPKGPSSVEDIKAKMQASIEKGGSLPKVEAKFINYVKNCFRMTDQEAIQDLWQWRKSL
recorded.metric: IC50

>  <smiles.text>
COc1ccc(-c2ccc3cnc(Nc4ccc(C5CCN(CC(N)=O)CC5)cc4OC)nn23)c(OC)c1

>  <recorded.measurement>
500 nM

$$$$
>  <smiles.text>
COc1cc(N2CCN(C[C@H](C)O)CC2)c(F)cc1Nc1ncc2ccc(-c3ccccc3N(C)S(C)(=O)=O)n2n1

>  <recorded.measurement>
200 nM

$$$$
>  <smiles.text>
CNC(=O)CN1CCC(c2ccc(Nc3ncc4ccc(-c5ccccc5OC)n4n3)c(OC)c2)CC1

>  <recorded.measurement>
100 nM

$$$$
>  <smiles.text>
COc1cc(C2CCN(CC(N)=O)CC2)ccc1Nc1ncc2c(Cl)cc(-c3ccccc3N(C)S(C)(=O)=O)n2n1

>  <recorded.measurement>
70 nM

$$$$

====

Test: Half life in Sprague-Dawley rat at 1 mg/kg, iv
Type: ADME, organism-based
Design: dose 1 mg/kg, route intravenous
Conditions: in vivo
recorded.metric: half-life

>  <compound>
COc1cc(C2CCN(C[C@H](O)CO)CC2)ccc1Nc1ncc2ccc(-c3ccccc3OC)n2n1

>  <recorded.measurement>
2 h

$$$$
>  <compound>
COc1cc(C2CCN(CC(N)=O)CC2)ccc1Nc1ncc2c(Cl)cc(-c3ccccc3N(C)S(C)(=O)=O)n2n1

>  <recorded.measurement>
> 2 h

$$$$
>  <compound>
COc1cc(C2CCN(C(=O)C3CCN3)CC2)ccc1Nc1ncc2ccc(-c3ccccc3OC)n2n1 (racemic)

>  <recorded.measurement>
2.5 h

$$$$
>  <compound>
COc1cc(C2CCN(C)CC2)ccc1Nc1ncc2ccc(-c3ccccc3OC)n2n1

>  <recorded.measurement>
1.4 h

$$$$
>  <compound>
COc1cc(C2CCN(CC(N)=O)CC2)ccc1Nc1ncc2ccc(-c3ccccc3OC)n2n1

>  <recorded.measurement>
3.4 h

$$$$
>  <compound>
COc1cc(C2CCN(C(=O)C(C)(C)N)CC2)ccc1Nc1ncc2ccc(-c3ccccc3OC)n2n1

>  <recorded.measurement>
2.6 h

$$$$
>  <compound>
COc1cc(C2CCN(CC(O)CF)CC2)ccc1Nc1ncc2ccc(-c3ccccc3OC)n2n1 (racemic)

>  <recorded.measurement>
1.4 h

$$$$
>  <compound>
COc1cc(C2CCN(CC(N)=O)CC2)ccc1Nc1ncc2c(C)cc(-c3ccccc3N(C)S(C)(=O)=O)n2n1

>  <recorded.measurement>
> 2 h

$$$$

Data credit: ChEMBL document CHEMBL2157957
